tested on: KRas Q61H mutant; test: Ras GTP binding domain inhibition assay (Cy3-GTP/Cy5-GTP competition); design: species or system human; conditions: 20 μM; with SOS (Table 7A)
value_type: KRas Q61H mutant + SOS: % inh.

1. COc1cccc(-c2sc3nc(-c4nc(C)cn4C)nc(N[C@@H]4CC[C@H](OC)C4)c3c2C)c1F [drawing 896] | B (26-50% inhibition)
2. COCCNC(=O)c1sc2nc(-c3nccn3C)nc(N[C@@H]3CC[C@H](OC)C3)c2c1-c1ccccc1 [drawing 925] | D (76-100% inhibition)
3. CO[C@H]1CC[C@@H](Nc2nc(-c3nccn3C)nc3sc(-c4ccn(C(C)C)n4)c(C)c23)C1 [drawing 919] | D (76-100% inhibition)
4. CO[C@H]1CC[C@@H](Nc2nc(-c3nc(C)cn3C)nc3sc(-c4cccc5[nH]ncc45)c(C)c23)C1 [drawing 897] | B (26-50% inhibition)
